EXPERIMENTAL_TARGET: T1, Recombinant protein kinase Cα (PKCα, human) (human, UniProt P17252 1-672)
T1 construct: protein kinase C alpha, human, recombinant; source: bought: Calbiochem
TEST_PROTOCOL: kinase inhibition assay (Ki from enzyme kinetics); purified recombinant kinases with multiple concentrations of DT-2; saturating peptide substrate …; PKG isoforms activated with 1 μM cGMP; PKC activated with 50 μg/μL phospholipids and 100 ng/mL 12-O-tetradecanoylphorbol-13-acetate
EXPERIMENTAL_CONDITIONS: both partners purified
ASSAY_READOUT: pKi
When answering, recall that pKi equals minus log10 of the concentration in mol/L, and write that number alone.

# lookup: pKi of YGRKKRRQRRRPPLRKKKKKH (also called peptide DT-2) [DT-2] 7.58
